Source listed as ChEMBL document CHEMBL3351639.

Measured Activity values are reported for all entries that follow.
- System: Rattus norvegicus
- Test Summary: Hypertensive activity in anesthetized Wistar rat assessed as maximal increase in mean arterial blood pressure at 0.1 mg/kg, iv measured during 60 mins post dose
- Type: ADME, organism-based
- Parameters: dose 0.1 mg/kg, route intravenous
- Condition Details: in vivo, 1 h
Write the value in mmHg as a bare number.

Worked examples, 2 compounds total:
Molecule	Activity (mmHg)
Fc1ccc2cnn(CC3=NCCN3)c2c1	23.6
Fc1ccc2cnn(N=C3NCCN3)c2c1	24.8

Task item: Kindly state the measured Activity obtained for Fc1ccc2c(cnn2CC2=NCCN2)c1 with Rattus norvegicus.
Reply: 0.8

Task item: Return Activity measured with Rattus norvegicus given this compound: Fc1ccc2c(cnn2N=C2NCCN2)c1
Reply: 14.6

Task item: Query for Rattus norvegicus: what Activity does the record show for Fc1cccc2cnn(N=C3NCCN3)c12 ?
Reply: 21.1

----------
- System Under Test: Adrenergic receptor alpha-2 (Rattus norvegicus, UniProt P22086+P19328+P22909)
- Test Summary: Displacement of [3H]RX821002 from alpha2-adrenoceptor in Sprague-Dawley rat brain membranes after 45 mins by liquid scintillation counting
- Type: cell membranes, Membrane
Reported Endpoint: Ki (µM)
# output: bare number, implied unit µM

Molecule	Units Text	Ki
Fc1c(F)c(F)c2c(cnn2N=C2NCCN2)c1F	µM	3.717
Fc1ccc2c(cnn2N=C2NCCN2)c1	µM	0.06433
Fc1cccc2c1cnn2CC1=NCCN1	µM	0.1873

Task item: Lookup: Ki / Adrenergic receptor alpha-2 (Rattus norvegicus, UniProt P22086+P19328+P22909) / Fc1cccc2c1cnn2N=C1NCCN1
Reply: 0.416
